Sourced from paper PMC7954794

Documented screen value across a set of variants
B1: S. cerevisiae Abp1 (full length; SH3 domain 535-592 mutated) / Hua2 (parent)
chain 1: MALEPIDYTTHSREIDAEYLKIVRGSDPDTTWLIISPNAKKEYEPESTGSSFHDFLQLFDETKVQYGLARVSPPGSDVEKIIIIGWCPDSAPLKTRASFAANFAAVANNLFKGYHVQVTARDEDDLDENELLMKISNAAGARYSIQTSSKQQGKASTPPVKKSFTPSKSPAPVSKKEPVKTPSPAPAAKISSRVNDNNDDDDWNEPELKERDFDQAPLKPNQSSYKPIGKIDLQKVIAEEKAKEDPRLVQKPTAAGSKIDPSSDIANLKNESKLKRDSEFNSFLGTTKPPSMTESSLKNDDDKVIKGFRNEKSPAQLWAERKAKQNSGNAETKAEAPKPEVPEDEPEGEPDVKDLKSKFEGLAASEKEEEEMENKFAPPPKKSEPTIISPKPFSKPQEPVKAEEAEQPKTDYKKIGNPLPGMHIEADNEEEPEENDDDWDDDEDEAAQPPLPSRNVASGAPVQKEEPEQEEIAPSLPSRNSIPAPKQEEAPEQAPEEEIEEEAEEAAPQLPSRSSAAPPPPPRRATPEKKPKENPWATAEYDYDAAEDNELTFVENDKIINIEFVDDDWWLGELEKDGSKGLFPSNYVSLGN
chain 2: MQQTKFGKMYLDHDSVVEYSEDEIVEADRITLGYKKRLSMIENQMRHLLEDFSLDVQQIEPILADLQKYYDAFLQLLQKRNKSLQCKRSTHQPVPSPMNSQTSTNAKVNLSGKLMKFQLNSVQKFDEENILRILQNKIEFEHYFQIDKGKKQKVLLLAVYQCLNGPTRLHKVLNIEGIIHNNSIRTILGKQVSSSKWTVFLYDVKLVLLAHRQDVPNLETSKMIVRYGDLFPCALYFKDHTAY

variants of: B1; assay: DHFR protein-fragment complementation in yeast (Abp1-DHFR F[1,2] x partner-DHFR F[3]), deep mutational scanning, second methotrexate selection vs reference; conditions: with Hua2; S. cerevisiae, DHFR-PCA selection in liquid with methotrexate at 30 C, two 72 h selections (the score uses the second); reference = the pre-selection culture; not an affinity; scale: DMS score: mean over two replicates of log2(f_test/f_ref + 0.5)/ln 2, minus the synonymous-codon median
Keep the answer to the number alone.

Sample answers from the record:
mutation name: chain 1 T552P
screen value: -2.02
//
mutation name: chain 1 L582P
screen value: -2.04
//
mutation name: chain 1 A545H
screen value: -1.96

Field: next variant
Entry chain 1 N561I has what screen value?
-1.97
